- Assay type: in vivo, human
- measurement context: human, plasma, oral, Entire AUC, Median, 250 mg group: 750 mg on day 1 and 250 mg on days 2–5
reported metric: AUC (µg·h/mL)

> print(dat)
                               smiles.entry  result.units  readout.value
1  Cn1cnc(Cn2c(=O)[nH]/c(=N\c3cc4cn(C)nc4cc3Cl)n(Cc3cc(F)c(F)cc3F)c2=O)n1       µg·h/mL           5320

====

- Assay type: in vivo, human
- measurement context: human, plasma, oral, C24_d5, Minimum, 250 mg group: 750 mg on day 1 and 250 mg on days 2–5; 24 h postdose on day 5
reported metric: concentration at 24 h (ng/mL)

> print(dat)
                               smiles.entry  readout.value
1  Cn1cnc(Cn2c(=O)[nH]/c(=N\c3cc4cn(C)nc4cc3Cl)n(Cc3cc(F)c(F)cc3F)c2=O)n1          24300

Data origin, for the record: paper PMC11649739
